# TEST SYSTEM: Sphingosine 1-phosphate receptor 5 (Homo sapiens)
# Sequence (Q9H228 whole entry): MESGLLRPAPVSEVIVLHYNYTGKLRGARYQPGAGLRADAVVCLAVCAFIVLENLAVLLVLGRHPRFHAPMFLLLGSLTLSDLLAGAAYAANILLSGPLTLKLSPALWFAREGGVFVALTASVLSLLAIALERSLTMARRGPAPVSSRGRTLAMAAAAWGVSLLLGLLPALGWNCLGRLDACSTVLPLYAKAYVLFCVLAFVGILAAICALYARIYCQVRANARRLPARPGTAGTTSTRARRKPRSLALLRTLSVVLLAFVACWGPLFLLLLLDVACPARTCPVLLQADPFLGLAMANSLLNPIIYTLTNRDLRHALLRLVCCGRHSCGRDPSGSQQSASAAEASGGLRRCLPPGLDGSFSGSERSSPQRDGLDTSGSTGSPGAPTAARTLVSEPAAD
# ASSAY PROTOCOL: Agonist activity at S1P5 receptor
METRIC: EC50 (nM)

a: C/N=C1\S/C(=C\c2cc(C)n(-c3ccc(Cl)cc3F)c2C)C(=O)N1C
b: CC/N=C1\S/C(=C\c2cc(C)n(-c3ccccc3)c2C)C(=O)N1CC
Enquiry: For a and b , which recorded EC50 is lower? # reply format: chosen label
Return: b

P: C/N=C1\S/C(=C\c2cc(C)n(Cc3c(F)cccc3F)c2C)C(=O)N1C
Q: COCC/N=C1\S/C(=C\c2cc(C)n(Cc3ccccc3)c2C)C(=O)N1C
Enquiry: I'd appreciate it if you could identify which of P and Q has the greater EC50. # reply format: chosen label
Return: Q
(Q: 196 nM, P: 34 nM)

---

# TEST SYSTEM: Sphingosine 1-phosphate receptor 5 (Homo sapiens)
# ASSAY PROTOCOL: Agonist activity at S1P5 receptor
pEC50: −log10 of the molar value.
METRIC: pEC50

Use the examples below as a reference point.
CC/N=C1\S/C(=C\c2cc(C)n(-c3ccc(F)cc3F)c2C)C(=O)N1CC	5.21
N[C@H](CNC(=O)c1cc2c(-c3ccccc3Cc3ccccc3)cccc2[nH]1)C(=O)O	5.62
COCC/N=C1\S/C(=C\c2cc(C)n(-c3ccc(F)cc3F)c2C)C(=O)N1C	5.68

P: C/N=C1\S/C(=C\c2cc(C)n(Cc3ccccc3F)c2C)C(=O)N1C
Q: C/N=C1\S/C(=C\c2cc(C)n(-c3ccc(F)cc3)c2C)C(=O)N1C
Enquiry: For P and Q , which recorded pEC50 is lower? # reply format: chosen label
Return: Q

a: C/N=C1\S/C(=C\c2cc(C)n(Cc3ccccc3)c2C)C(=O)N1C
b: C/N=C1\S/C(=C\c2cc(C)n(Cc3ccc(F)cc3F)c2C)C(=O)N1C
c: C/N=C1\S/C(=C\c2cc(C)n(-c3ccccc3F)c2C)C(=O)N1C
d: CC/N=C1\S/C(=C\c2cc(C)n(Cc3c(F)cccc3F)c2C)C(=O)N1CC
e: CCCCCCCCc1ccc2nc([C@@H](N)COP(=O)(O)O)[nH]c2c1
Enquiry: // smallest pEC50 at index 0, largest at the end Record the ranking as a list of labels in the requested order.
Return: c, a, b, d, e
(c: 6.14, a: 6.84, b: 7.43, d: 7.66, e: 8.09)

---

# TEST SYSTEM: Sphingosine 1-phosphate receptor 2 (Homo sapiens)
# Sequence (O95136 whole entry): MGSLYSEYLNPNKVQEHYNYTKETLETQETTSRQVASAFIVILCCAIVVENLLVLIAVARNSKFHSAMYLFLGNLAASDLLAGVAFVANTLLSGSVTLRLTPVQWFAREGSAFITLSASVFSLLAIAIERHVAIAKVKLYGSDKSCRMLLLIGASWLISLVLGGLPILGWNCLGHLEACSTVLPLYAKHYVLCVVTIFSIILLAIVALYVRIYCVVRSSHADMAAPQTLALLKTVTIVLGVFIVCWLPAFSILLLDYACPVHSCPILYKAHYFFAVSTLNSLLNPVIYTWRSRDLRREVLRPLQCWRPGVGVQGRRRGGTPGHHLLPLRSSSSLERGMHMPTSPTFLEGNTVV
# ASSAY PROTOCOL: Agonist activity at S1P2 receptor at 25 uM
# Assay type: functional
Active and inactive are the calls of the source. No cut-off for these calls is given here.
METRIC: Activity

Use the examples below as a reference point.
COCC/N=C1\S/C(=C\c2cc(C)n(-c3ccc(F)cc3F)c2C)C(=O)N1C	inactive
C/N=C1\S/C(=C\c2cc(C)n(-c3ccc(F)cc3F)c2C)C(=O)N1C	inactive
C/N=C1\S/C(=C\c2cc(C)n(-c3ccc(Cl)cc3F)c2C)C(=O)N1C	inactive
Cc1cc(/C=C2\S/C(=N\CCO)N(C)C2=O)c(C)n1-c1ccccc1F	inactive
C/N=C1\S/C(=C\c2cc(C)n(-c3ccc(F)cc3)c2C)C(=O)N1C	inactive

Per the record, CC/N=C1\S/C(=C\c2cc(C)n(-c3ccccc3)c2C)C(=O)N1CC has Activity of inactive

Per the record, CC/N=C1\S/C(=C\c2cc(C)n(-c3ccccc3F)c2C)C(=O)N1CC has Activity of inactive

Per the record, C/N=C1\S/C(=C\c2cc(C)n(Cc3ccc(F)cc3F)c2C)C(=O)N1C has Activity of inactive

Per the record, C/N=C1\S/C(=C\c2cc(C)n(-c3ccccc3F)c2C)C(=O)N1C has Activity of inactive

Per the record, COCC/N=C1\S/C(=C\c2cc(C)n(Cc3ccccc3)c2C)C(=O)N1C has Activity of inactive

Per the record, CC/N=C1\S/C(=C\c2cc(C)n(-c3ccc(F)cc3F)c2C)C(=O)N1CC has Activity of inactive

Per the record, CC/N=C1\S/C(=C\c2cc(C)n(Cc3c(F)cccc3F)c2C)C(=O)N1CC has Activity of inactive

Values were extracted from ChEMBL document CHEMBL1909558.
